- ASSAY_COMMENT: Quantitative High-Throughput drug screen in 47 multiple myeloma cell lines against the NCATS MIPE library collection: OPM2_DSMZ cell viability assay (AID 1919872); further: nearly all actives have a fitted effect of over 30% in size
- TEST_CONDITIONS: OPM2 myeloma viability, CellTiter-Glo ATP luminescence, 48 h; series mostly up to 45.8 µM
Inconclusive results are not listed. The source made the active and inactive calls. The call rests on the fitted dose curve; in most records, active means well fitted cell-killing curve with a large enough effect; inconclusive means small, poorly fitted or top-dose-only effect, or effect the other way; inactive means no such curve, though single readings can be large or run the other way.
The categories you may choose from are active, inactive

In [3]: df
Out[3]:
                                   compound       cat
0  C[C@]12Cc3cn[nH]c3C[C@@H]1CC[C@@H]1[C@H]2CC[C@@]2(C)[C@H]1CC[C@]2(C)O  inactive

Any idea what this test logged for CC(C)(O)C=CC(=O)[C@](C)(O)[C@H]1[C@H](O)C[C@]2(C)[C@@H]3CC=C4[C@@H](C=C(O)C(=O)C4(C)C)[C@]3(C)C(=O)C[C@@]12C ?
active

###

- ASSAY_COMMENT: qHTS of pediatric cancer cell lines to identify multiple opportunities for drug repurposing: Confirmatory screen for TC32 cells (AID 1347118);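 further: potency means the concentration at half of the fitted maximal effect; cells exposed to compound for 48 h before the read; nearly all actives have a fitted effect of over 65% in size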
- TEST_CONDITIONS: TC32 Ewing sarcoma cells viability qHTS; series mostly up to 45.9 µM
Records with an inconclusive call do not appear. Active and inactive are the calls of the source. Calls come from the whole dose curve; as a rule, active = well fitted cell-killing curve with a large enough effect; inconclusive = small, poorly fitted or top-dose-only effect; inactive = no such curve, though single readings can be large or run the other way.
PROPERTY_NAME: Potency

>>> print(df.to_string())
                         compound_structure              result
0  Cc1ccccc1-n1c(Cn2ncc3c(N)ncnc32)nc2cccc(C)c2c1=O    1.85 µM (active)
1  COc1cc2cc(c1Cl)N(C)C(=O)C[C@H](OC(=O)C(C)C)[C@]1(C)O[C@H]1[C@H](C)[C@@H]1C[C@@](O)(NC(=O)O1)[C@H](OC)C=CC=C(C)C2  0.0004 µM (active)
2  Cc1[nH]nc2ccc(-c3cncc(OC[C@@H](N)Cc4c[nH]c5ccccc45)c3)cc12    2.33 µM (active)
3        O=C(N[C@H]1CN2CCC1CC2)c1ccc(Cl)cc1    1.65 µM (active)

Record request: Potency value, item CC(C)[C@]12O[C@@H]1[C@@H]1O[C@]13[C@]1(O[C@H]1C[C@@H]1C4=C(CC[C@@]13C)C(=O)OC4)[C@H]2O
0.0737 µM (active)

Record request: Potency value, item CC1=C(O)C(=O)C=C2C1=CC=C1[C@@]2(C)CC[C@@]2(C)[C@@H]3C[C@](C)(C(=O)O)CC[C@]3(C)CC[C@]12C
1.31 µM (active)

Record request: Potency value, item C[C@@H]1O[C@@H](O[C@@H]2C=C3CC[C@@H]4[C@@H](CC[C@]5(C)[C@H](c6ccc(=O)oc6)CC[C@@]45O)[C@@]3(C)CC2)[C@H](O)[C@H](O)[C@H]1O
0.0233 µM (active)

Record request: Potency value, item S=C(SSC(=S)N1CCCCC1)N1CCCCC1
2.61 µM (active)

Record request: Potency value, item O=c1[nH]c2ccc(Cl)cc2c(N[C@@H]2CN3CCC2CC3)c1-c1nc2ccccc2[nH]1
0.465 µM (active)

###

- ASSAY_COMMENT: Quantitative High-Throughput drug screen in 47 multiple myeloma cell lines against the NCATS MIPE library collection: LP1_DSMZ cell viability assay (AID 1918982); further: nearly all actives have a fitted effect of over 35% in size
- TEST_CONDITIONS: LP1 myeloma viability, CellTiter-Glo ATP luminescence, 48 h; series mostly up to 45.8 µM
Results filed as inconclusive are left out. The source made the active and inactive calls. Calls come from the whole dose curve; as a rule, active = well fitted cell-killing curve with a large enough effect; inconclusive = small, poorly fitted or top-dose-only effect, or effect the other way; inactive = no such curve, though single readings can be large or run the other way.
PROPERTY_NAME: outcome

                                   compound    result
0  CN(C)[C@@H]1C(=O)C(C(N)=O)=C(O)[C@@]2(O)C(=O)C3=C(O)c4c(O)cccc4[C@@](C)(O)[C@H]3[C@H](O)[C@@H]12  inactive
1  COc1ccc2c(c1)[C@]13CCCCC1C(C2)N(C)CC3 (stereo partly drawn)  inactive
2  COc1cccc2c1[C@]13CCN(CC4CC4)[C@H](C2)[C@]1(OC)CCC(=O)C3  inactive

###

- SYSTEM_TESTED: Cytochrome P450 2C9 (Homo sapiens)
- ASSAY_COMMENT: Cytochrome P450 family 2 subfamily C member 9 (CYP2C9) small molecule antagonists: luciferase biochemical (cell-free) qHTS assay (AID 1645842); further: nearly all actives have a fitted effect of over 55% in size
- TEST_CONDITIONS: P450-Glo CYP2C9 enzyme assay, luciferin luminescence; series mostly up to 57.4 µM
- Description: National Center for Advancing Translational Sciences [NCATS] Assay Overview: Cytochrome P450 (CYP) enzymes are membrane-bound hemeproteins that play a key role in metabolism of drugs and xenobiotics. Assaying the effect of chemicals on CYP isozymes is useful to minimize the adverse drug reactions and toxicities in drug development process. […] The luciferin products formed are detected with a luciferin detection reagent, and the amount of light produced is proportional to CYP activity. […]
Results filed as inconclusive are left out. Calls of active or inactive are those of the source. Calls come from the whole dose curve; as a rule, active = well fitted inhibition curve with a large enough effect in the repeat runs; inconclusive = weak or mixed curves; inactive = no such curve, though single readings can be large or run the other way.
The categories you may choose from are yes = active, no = inactive

In [3]: df
Out[3]:
    compound_structure  cat
0  CCCCCCCCc1ccc(O)cc1  yes

Any idea what this test logged for O=C(Oc1ccc([N+](=O)[O-])cc1)N1CCN(Cc2cccc(Oc3ccccc3)c2)CC1 ?
yes

Any idea what this test logged for CSCC[C@@H](NC(=O)[C@@H](Cc1ccccc1)NC(=O)CNC(=O)CNC(=O)[C@@H](N)Cc1ccc(O)cc1)C(=O)O ?
no

Any idea what this test logged for COc1ccc(N(C(=O)Oc2c(C)cccc2C)c2ccnc(Nc3ccc(N4CCN(C)CC4)cc3)n2)c(OC)c1 ?
yes

Any idea what this test logged for Nc1ccc(N=Nc2ccccc2)cc1 ?
yes

Any idea what this test logged for O=C(N[C@@H](COc1ccc2[nH]c(=O)[nH]c2c1)c1ccccc1)c1cccn(Cc2ccc(F)c(F)c2)c1=O ?
yes

Any idea what this test logged for C=CC(=O)NCNC(=O)C=C ?
no

Any idea what this test logged for CC1(N2CCC(n3c([C@@H]4CCCNC4)nc4ccccc43)CC2)CCCCCCC1 ?
no

###

- ASSAY_COMMENT: qHTS for Inhibitors of the Functional Ribonucleoprotein Complex (vRNP) of Lymphocytic Choriomeningitis Arenaviruses (LCMV): Viability assay - alamar blue signal for LCMV Primary Screen (AID 1347085); further: nearly all actives have a fitted effect of over 80% in size; further: potency means the concentration at half of the fitted maximal effect
- TEST_CONDITIONS: alamar blue viability counter-screen, LCMV vRNP screen cells; series mostly up to 57.5 µM
Results filed as inconclusive are left out. Activity calls are given as the source filed them. Calls follow the shape of the full dose curve; tested in HEK293 reporter line.
PROPERTY_NAME: Potency

>>> df
                                   compound  property_name             result
0  CC(=O)Nc1ccc([C@H](C)C(=O)Nc2ncc(C(C)C)s2)cc1        Potency  0.611 µM (active)
1           CCOC(=O)c1cncn1[C@H](C)c1ccccc1        Potency           inactive
2  Cc1[nH]nc2ccc(-c3cncc(OC[C@@H](N)Cc4c[nH]c5ccccc45)c3)cc12        Potency  0.432 µM (active)
3   CC(C)=CCCC(C)=CCCC(C)=CCSc1ccccc1C(=O)O        Potency   9.68 µM (active)
4  COc1ccccc1N1CCN(CC(O)COc2cc(OC)c(OC)c(OC)c2)CC1 (stereo unspecified)        Potency           inactive
5  NC(=O)CN1CC(O)CC1=O (stereo unspecified)        Potency           inactive
6                             Cn1cnc(CCN)c1        Potency           inactive
7            O=C(O)Cc1ccccc1Oc1ccc(Cl)cc1Cl        Potency           inactive
8  Cc1[nH]nc2ccc(-c3cncc(OC[C@@H](N)Cc4ccccc4)c3)cc12        Potency   1.37 µM (active)
9  CC(=O)Nc1ccc(OC[C@](C)(O)C(=O)Nc2ccc([N+](=O)[O-])c(C(F)(F)F)c2)cc1        Potency   10.9 µM (active)

--- query ---
Record request: Potency value, item CN[C@@H]1Cc2cccc3[nH]c(=O)n(c23)C1
inactive

###

- ASSAY_COMMENT: Cell Viability - LYMP2-016 (AID 984);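 further: cells exposed to compound for 24 hours at 37 °C; nearly all actives have a fitted effect of over 55% in size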
- TEST_CONDITIONS: LYMP2-016 lymphoblastoid cell viability, qHTS; series mostly up to 92.2 µM
Records with an inconclusive call do not appear. Activity calls are given as the source filed them. The call rests on the fitted dose curve; in most records, active means well fitted cell-killing curve with a large enough effect; inconclusive means small, poorly fitted or top-dose-only effect; inactive means flat fitted curve, though single readings scatter.
The categories you may choose from are active, inactive

>>> df
                                   compound       cat
0                            Nc1ccc(Cl)cc1N  inactive
1                            Cc1cc(O)ccc1Cl  inactive
2                             Nc1ccc(Cl)cc1  inactive
3  O=[N+]([O-])c1cc([N+](=O)[O-])c2ccccc2c1  inactive
4                       C1CCC(NC2CCCCC2)CC1  inactive

Any idea what this test logged for Nc1ccc([N+](=O)[O-])cc1 ?
inactive

Any idea what this test logged for CCCCC(CC)COC(=O)c1ccccc1C(=O)OCC(CC)CCCC (centres undefined) ?
inactive
